What follows is a record of IC50 for Serine/threonine-protein kinase B-raf (Homo sapiens, UniProt P15056).
Measured parameter: IC50

Chemical string	Reported measurement
Cc1noc(C)c1NC(=O)Nc1cccc(-c2csc3c(-c4cccnc4)cnc(N)c23)c1	> 10 µM
Nc1ncc(-c2cccnc2)c2scc(-c3cccc(NC(=O)NC4CCCCC4)c3)c12	4.1 µM
Nc1ncc(-c2cccnc2)c2scc(-c3cccc(NC(=O)C4CCCCC4)c3)c12	> 10 µM
Nc1ncc(-c2cccnc2)c2scc(-c3cccc(NC(=O)Nc4ccc(OCc5ccccc5)cc4)c3)c12	> 10 µM
